Consider the following compounds; for each one, report its pIC50.
- System: 857933-349-R-J2-PDC complex spheroid viability
- Run description: Anticancer human tumor 857933-349-R-J2-PDC patient-derived colon adenocarcinoma cell line growth inhibition [POLQ]
- Experimental context: curve of first compound; second compound 0.316 µM
Please express pIC50 as -log10 of the molar concentration.

pIC50 for CCCS(=O)(=O)Nc1ccc(F)c(C(=O)c2c[nH]c3ncc(-c4ccc(Cl)cc4)cc23)c1F + Nc1ccc(C#CCN(C(=O)Cc2ncc(C(F)(F)F)cc2C(F)(F)F)c2ccc(F)cc2)nn1 ?
5.22

pIC50 for COc1ccc([C@@H](O)c2cc(-c3ncnc4cc(N5CCOCC5)ccc34)c(F)cc2Cl)nn1 + Nc1ccc(C#CCN(C(=O)Cc2ncc(C(F)(F)F)cc2C(F)(F)F)c2ccc(F)cc2)nn1 ?
5.01

pIC50 for CC(=O)O[C@H]1C(=O)[C@@]2(C)[C@H]([C@H](OC(=O)c3ccccc3)[C@]3(O)C[C@H](OC(=O)[C@H](O)[C@@H](NC(=O)c4ccccc4)c4ccccc4)C(C)=C1C3(C)C)[C@]1(OC(C)=O)CO[C@@H]1C[C@@H]2O + COC1C(OC(N)=O)C(O)C(Oc2ccc3c(O)c(NC(=O)c4ccc(O)c(CC=C(C)C)c4)c(=O)oc3c2C)OC1(C)C ?
7.88

pIC50 for COc1cc(C2c3cc4c(cc3C(OC3OC5COC(C)OC5C(O)C3O)C3COC(=O)C23)OCO4)cc(OC)c1O (centres undefined) + Nc1ccc(C#CCN(C(=O)Cc2ncc(C(F)(F)F)cc2C(F)(F)F)c2ccc(F)cc2)nn1 ?
6.25

pIC50 for COc1cc(C2c3cc4c(cc3C(OC3OC5COC(C)OC5C(O)C3O)C3COC(=O)C23)OCO4)cc(OC)c1O (centres undefined) + COC1C(OC(N)=O)C(O)C(Oc2ccc3c(O)c(NC(=O)c4ccc(O)c(CC=C(C)C)c4)c(=O)oc3c2C)OC1(C)C ?
6.31

pIC50 for CC1COCCN1c1cc(-c2ccnn2C)c2ccnc(-c3ccn[nH]3)c2n1 (centres undefined) + COC1C(OC(N)=O)C(O)C(Oc2ccc3c(O)c(NC(=O)c4ccc(O)c(CC=C(C)C)c4)c(=O)oc3c2C)OC1(C)C ?
6.80

pIC50 for CCCS(=O)(=O)Nc1ccc(F)c(C(=O)c2c[nH]c3ncc(-c4ccc(Cl)cc4)cc23)c1F + Cc1cccc(N(C)C(=O)C2C(O)CCN2c2nc(C)cc(C(F)(F)F)c2C#N)c1 ?
5.17

pIC50 for CCc1c2c(nc3ccc(O)cc13)-c1cc3c(c(=O)n1C2)COC(=O)[C@]3(O)CC + Nc1ccc(C#CCN(C(=O)Cc2ncc(C(F)(F)F)cc2C(F)(F)F)c2ccc(F)cc2)nn1 ?
7.96

pIC50 for CC1COCCN1c1cc(-c2ccnn2C)c2ccnc(-c3ccn[nH]3)c2n1 (centres undefined) + Cc1cccc(N(C)C(=O)C2C(O)CCN2c2nc(C)cc(C(F)(F)F)c2C#N)c1 ?
6.63

pIC50 for CC1COCCN1c1cc(C2(S(C)(=N)=O)CC2)nc(-c2ccnc3[nH]ccc23)n1 (centres undefined) + Cc1cccc(N(C)C(=O)C2C(O)CCN2c2nc(C)cc(C(F)(F)F)c2C#N)c1 ?
5.57

---

- Tested on: 857933-349-R-J2-PDC complex spheroid viability
- Run description: Anticancer human tumor 857933-349-R-J2-PDC cell line growth inhibition [POLQ];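 further: spheroids exposed to compounds for seven days before readout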
- Experimental context: curve of first compound; second compound 0.0316 µM
Readout kind: pIC50
Please express pIC50 as -log10 of the molar concentration.

# get_value(readout= pIC50, system= 857933-349-R-J2-PDC complex spheroid viability) for CC1COCCN1c1cc(C2(O)CC3CCC(C2)O3)c2cnn(-c3ccn[nH]3)c2n1 (stereo not given) + Nc1ccc(C#CCN(C(=O)Cc2ncc(C(F)(F)F)cc2C(F)(F)F)c2ccc(F)cc2)nn1
6.06

# get_value(readout= pIC50, system= 857933-349-R-J2-PDC complex spheroid viability) for CCCS(=O)(=O)Nc1ccc(F)c(C(=O)c2c[nH]c3ncc(-c4ccc(Cl)cc4)cc23)c1F + Cc1cccc(N(C)C(=O)C2C(O)CCN2c2nc(C)cc(C(F)(F)F)c2C#N)c1
5.16

# get_value(readout= pIC50, system= 857933-349-R-J2-PDC complex spheroid viability) for COc1cc(C2c3cc4c(cc3C(OC3OC5COC(C)OC5C(O)C3O)C3COC(=O)C23)OCO4)cc(OC)c1O (stereo not given) + COC1C(OC(N)=O)C(O)C(Oc2ccc3c(O)c(NC(=O)c4ccc(O)c(CC=C(C)C)c4)c(=O)oc3c2C)OC1(C)C
6.45

# get_value(readout= pIC50, system= 857933-349-R-J2-PDC complex spheroid viability) for Nc1ccn(C2OC(CO)C(O)C2(F)F)c(=O)n1 (stereo not given) + Cc1cccc(N(C)C(=O)C2C(O)CCN2c2nc(C)cc(C(F)(F)F)c2C#N)c1
6.77

# get_value(readout= pIC50, system= 857933-349-R-J2-PDC complex spheroid viability) for CCCS(=O)(=O)Nc1ccc(F)c(C(=O)c2c[nH]c3ncc(-c4ccc(Cl)cc4)cc23)c1F + Nc1ccc(C#CCN(C(=O)Cc2ncc(C(F)(F)F)cc2C(F)(F)F)c2ccc(F)cc2)nn1
5.21
